assay: Phase 2A study (Magnolia) in women with postpartum depression: ganaxolone plasma concentrations / pharmacokinetics; conditions: female, human, plasma, intravenous, 220 μg/kg/hr, Mean average GNX Concentration, calculated for dose 220 μg/kg/hr; time 48 hr
Measured parameter: concentration at 48 h (ng/mL)
Give the value in ng/mL but do not write ng/mL after it.

// field: concentration at 48 h; key: CC(=O)[C@H]1CC[C@H]2[C@@H]3CC[C@H]4C[C@](C)(O)CC[C@]4(C)[C@H]3CC[C@]12C [ganaxolone, 3α-hydroxy-3β-methyl-5α-pregnan-20-one] ; value = 257

###

experiment: Phase 2A study (Magnolia) in women with postpartum depression: ganaxolone plasma concentrations / pharmacokinetics; conditions: female, human, plasma, intravenous, 160 μg/kg/hr, Mean average GNX Concentration, calculated for dose 160 μg/kg/hr; time 24 hr
Measured parameter: concentration at 24 hr (ng/mL)
Give the value in ng/mL but do not write ng/mL after it.

// field: concentration at 24 hr; key: CC(=O)[C@H]1CC[C@H]2[C@@H]3CC[C@H]4C[C@](C)(O)CC[C@]4(C)[C@H]3CC[C@]12C [ganaxolone, 3α-hydroxy-3β-methyl-5α-pregnan-20-one] ; value = 170

###

test: IV toxicity in rats, 14 days; settings: female, rat, in vivo, iv
Measured parameter: NOAEL at 14 days (mg/kg/day)
Give the value in mg/kg/day but do not write mg/kg/day after it.

// field: NOAEL at 14 days; key: CC(=O)[C@H]1CC[C@H]2[C@@H]3CC[C@H]4C[C@](C)(O)CC[C@]4(C)[C@H]3CC[C@]12C [ganaxolone, 3α-hydroxy-3β-methyl-5α-pregnan-20-one] ; value = 30

###

experiment: Phase 2A study (Magnolia) in women with postpartum depression: ganaxolone plasma concentrations / pharmacokinetics; conditions: female, human, plasma, iv, 160 ug/kg, AUC24-48, calculated from Table 1C; dose 160 μg/kg/hr (row order of Table 1C)
Measured parameter: AUC (ng·h/mL)
Give the value in ng·h/mL but do not write ng·h/mL after it.

// field: AUC; key: CC(=O)[C@H]1CC[C@H]2[C@@H]3CC[C@H]4C[C@](C)(O)CC[C@]4(C)[C@H]3CC[C@]12C [ganaxolone, 3α-hydroxy-3β-methyl-5α-pregnan-20-one] ; value = 4280

###

assay: Phase 2A study (Magnolia) in women with postpartum depression: ganaxolone plasma concentrations / pharmacokinetics; conditions: female, human, plasma, iv, 86 ug/kg, AUC24-48, calculated from Table 1C; dose 86 μg/kg/hr (row order of Table 1C)
Measured parameter: AUC (ng·h/mL)
Give the value in ng·h/mL but do not write ng·h/mL after it.

// field: AUC; key: CC(=O)[C@H]1CC[C@H]2[C@@H]3CC[C@H]4C[C@](C)(O)CC[C@]4(C)[C@H]3CC[C@]12C [ganaxolone, 3α-hydroxy-3β-methyl-5α-pregnan-20-one] ; value = 2300

###

test: Solubility of ganaxolone; conditions: polyethylene glycol, organic solvent or mixture
Measured parameter: solubility

// field: solubility; key: CC(=O)[C@H]1CC[C@H]2[C@@H]3CC[C@H]4C[C@](C)(O)CC[C@]4(C)[C@H]3CC[C@]12C [ganaxolone, 3α-hydroxy-3β-methyl-5α-pregnan-20-one] ; value = 3100 µg/mL

###

assay: Phase 2A study (Magnolia) in women with postpartum depression: ganaxolone plasma concentrations / pharmacokinetics; conditions: female, human, plasma, intravenous, 180 μg/kg/hr, Mean average GNX Concentration, calculated for dose 180 μg/kg/hr; time 12 hr
Measured parameter: concentration at 12 h (ng/mL)
Give the value in ng/mL but do not write ng/mL after it.

// field: concentration at 12 h; key: CC(=O)[C@H]1CC[C@H]2[C@@H]3CC[C@H]4C[C@](C)(O)CC[C@]4(C)[C@H]3CC[C@]12C [ganaxolone, 3α-hydroxy-3β-methyl-5α-pregnan-20-one] ; value = 170

###

assay: Phase 2A study (Magnolia) in women with postpartum depression: ganaxolone plasma concentrations / pharmacokinetics; conditions: female, human, plasma, iv, 190 ug/kg, AUC12-48, calculated from Table 1C; dose 190 μg/kg/hr (row order of Table 1C)
Measured parameter: AUC (ng·h/mL)
Give the value in ng·h/mL but do not write ng·h/mL after it.

// field: AUC; key: CC(=O)[C@H]1CC[C@H]2[C@@H]3CC[C@H]4C[C@](C)(O)CC[C@]4(C)[C@H]3CC[C@]12C [ganaxolone, 3α-hydroxy-3β-methyl-5α-pregnan-20-one] ; value = 7370

###

experiment: Human pharmacokinetics after oral administration; conditions: in vivo
Measured parameter: Cmax

// field: Cmax; key: CC(=O)[C@H]1CC[C@H]2[C@@H]3CC[C@H]4C[C@](C)(O)CC[C@]4(C)[C@H]3CC[C@]12C [ganaxolone, 3α-hydroxy-3β-methyl-5α-pregnan-20-one] ; value = 200 to 300 ng/mL

###

Assay: Phase 2A study (Magnolia) in women with postpartum depression: ganaxolone plasma concentrations / pharmacokinetics
Conditions: female, human, plasma, intravenous, 200 μg/kg/hr, Mean average GNX Concentration, calculated for dose 200 μg/kg/hr; time 48 hr
Method: Approximately 200 women with PPD 18 to 45 years of age are screened to randomize up to 100 subjects across up to 6 cohorts. Approximately 10-30 subjects are randomized into each cohort. Randomized subjects receive the investigational product (IP), ganaxolone or matching placebo in a 1:1 ratio. In Cohorts 1-5 the IP is administered intravenously over 60 hours. In Cohort 6 the dosing is initiated with a 6-hour intravenous (IV) infusion followed by oral dosing for 28 days plus 3-day taper. […]
Measured parameter: concentration at 48 h (ng/mL)
Give the value in ng/mL but do not write ng/mL after it.

// field: concentration at 48 h; key: CC(=O)[C@H]1CC[C@H]2[C@@H]3CC[C@H]4C[C@](C)(O)CC[C@]4(C)[C@H]3CC[C@]12C [ganaxolone, 3α-hydroxy-3β-methyl-5α-pregnan-20-one] ; value = 234

###

Assay: Phase 2A study (Magnolia) in women with postpartum depression: ganaxolone plasma concentrations / pharmacokinetics
Details: female, human, plasma, intravenous, 260 μg/kg/hr, Mean average GNX Concentration, calculated for dose 260 μg/kg/hr; time 48 hr
Description: Approximately 200 women with PPD 18 to 45 years of age are screened to randomize up to 100 subjects across up to 6 cohorts. Approximately 10-30 subjects are randomized into each cohort. Randomized subjects receive the investigational product (IP), ganaxolone or matching placebo in a 1:1 ratio. In Cohorts 1-5 the IP is administered intravenously over 60 hours. In Cohort 6 the dosing is initiated with a 6-hour intravenous (IV) infusion followed by oral dosing for 28 days plus 3-day taper. […]
Measured parameter: concentration at 48 h
Numeric answer plus unit only.

// field: concentration at 48 h; key: CC(=O)[C@H]1CC[C@H]2[C@@H]3CC[C@H]4C[C@](C)(O)CC[C@]4(C)[C@H]3CC[C@]12C [ganaxolone, 3α-hydroxy-3β-methyl-5α-pregnan-20-one] ; value = 304 ng/mL

###

assay: Phase 2A study (Magnolia) in women with postpartum depression: ganaxolone plasma concentrations / pharmacokinetics; conditions: female, human, plasma, iv, 190 ug/kg, AUC12-24, calculated from Table 1C; dose 190 μg/kg/hr (row order of Table 1C)
Measured parameter: AUC

// field: AUC; key: CC(=O)[C@H]1CC[C@H]2[C@@H]3CC[C@H]4C[C@](C)(O)CC[C@]4(C)[C@H]3CC[C@]12C [ganaxolone, 3α-hydroxy-3β-methyl-5α-pregnan-20-one] ; value = 2290 ng·h/mL

###

experiment: Phase 2A study (Magnolia) in women with postpartum depression: ganaxolone plasma concentrations / pharmacokinetics; conditions: female, human, plasma, intravenous, 86 μg/kg/hr, Mean average GNX Concentration, calculated for dose 86 μg/kg/hr; time 48 hr
Measured parameter: concentration at 48 h (ng/mL)
Give the value in ng/mL but do not write ng/mL after it.

// field: concentration at 48 h; key: CC(=O)[C@H]1CC[C@H]2[C@@H]3CC[C@H]4C[C@](C)(O)CC[C@]4(C)[C@H]3CC[C@]12C [ganaxolone, 3α-hydroxy-3β-methyl-5α-pregnan-20-one] ; value = 100

###

assay: Phase 2A study (Magnolia) in women with postpartum depression: ganaxolone plasma concentrations / pharmacokinetics; conditions: female, human, plasma, intravenous, 170 μg/kg/hr, Mean average GNX Concentration, calculated for dose 170 μg/kg/hr; time 12 hr
Measured parameter: concentration at 12 hr (ng/mL)
Give the value in ng/mL but do not write ng/mL after it.

// field: concentration at 12 hr; key: CC(=O)[C@H]1CC[C@H]2[C@@H]3CC[C@H]4C[C@](C)(O)CC[C@]4(C)[C@H]3CC[C@]12C [ganaxolone, 3α-hydroxy-3β-methyl-5α-pregnan-20-one] ; value = 161

###

test: Phase 2A study (Magnolia) in women with postpartum depression: ganaxolone plasma concentrations / pharmacokinetics; conditions: female, human, plasma, iv, 220 ug/kg, AUC24-48, calculated from Table 1C; dose 220 μg/kg/hr (row order of Table 1C)
Measured parameter: AUC (ng·h/mL)
Give the value in ng·h/mL but do not write ng·h/mL after it.

// field: AUC; key: CC(=O)[C@H]1CC[C@H]2[C@@H]3CC[C@H]4C[C@](C)(O)CC[C@]4(C)[C@H]3CC[C@]12C [ganaxolone, 3α-hydroxy-3β-methyl-5α-pregnan-20-one] ; value = 5890
